biological target: Estrogen receptor beta (Homo sapiens)
Items are presented alongside their recorded pIC50.
// pIC50: -log10(molar conc.)

compound.string	pIC50
N#Cc1cc(O)c(Cl)c2ccc(-c3ccc(O)c(F)c3)cc12	8.59
Oc1ccc(-c2ccc3cc(O)ccc3c2)c(F)c1	8.70

Return pIC50 (reported value) for this compound: `N#Cc1cc(O)c(C#N)c2ccc(-c3ccc(O)c(F)c3)cc12`
7.55

Complete the entry with pIC50 for `N#Cc1cc(-c2c(F)cc(O)cc2F)cc2ccc(O)cc12`
8.66

Output measured pIC50 for this item: `Oc1cccc(-c2ccc3c(O)cccc3c2)c1`
6.69

Dear colleague, please send me the reported pIC50 for `Oc1cc(F)c(-c2ccc3cc(O)ccc3c2)c(F)c1` when you can.
8.64

For the compound `Oc1ccc(-c2ccc3ccc(O)cc3c2)cc1` , report pIC50.
7.36

---

target: Estrogen receptor (Homo sapiens, UniProt P03372)
Sequence (P03372 whole entry): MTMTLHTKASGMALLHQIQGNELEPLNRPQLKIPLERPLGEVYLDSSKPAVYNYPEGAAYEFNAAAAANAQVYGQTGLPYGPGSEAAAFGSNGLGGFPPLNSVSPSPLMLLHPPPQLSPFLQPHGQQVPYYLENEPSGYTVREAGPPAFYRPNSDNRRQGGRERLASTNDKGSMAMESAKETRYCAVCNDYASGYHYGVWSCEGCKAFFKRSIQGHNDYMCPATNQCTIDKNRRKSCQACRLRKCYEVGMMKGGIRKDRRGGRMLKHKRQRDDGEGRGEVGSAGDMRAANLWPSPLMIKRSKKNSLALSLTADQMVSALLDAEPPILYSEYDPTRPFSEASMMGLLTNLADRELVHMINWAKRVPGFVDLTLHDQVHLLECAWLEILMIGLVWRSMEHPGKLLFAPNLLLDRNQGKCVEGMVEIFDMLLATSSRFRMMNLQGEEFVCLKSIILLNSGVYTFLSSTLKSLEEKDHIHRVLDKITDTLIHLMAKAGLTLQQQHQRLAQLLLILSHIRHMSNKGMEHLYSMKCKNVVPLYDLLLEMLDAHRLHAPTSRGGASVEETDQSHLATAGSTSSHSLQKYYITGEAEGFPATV
pIC50: −log10 of the molar value.
We use 7 as the dividing line for pIC50: on or above the line is TRUE, below is FALSE.

Completed entries (count: 4):
compound.string	category.label
Oc1ccc(-c2ccc3cc(O)ccc3c2)cc1	FALSE
Oc1ccc2cc(-c3ccccc3O)ccc2c1	FALSE
Oc1cccc(-c2ccc3ccc(O)cc3c2)c1	FALSE
Cc1cc(O)ccc1-c1ccc2c(Cl)c(O)ccc2c1	TRUE

Okay, now this compound:
In plain terms: is recorded pIC50 at least 7 for `Oc1ccc(-c2cc(F)c3cc(O)ccc3c2)cc1` ?
TRUE

---

molecular target: Estrogen receptor (Homo sapiens)
Catalogue of compounds with associated IC50

Examples with answers:
compound.string	system.name	IC50
N#Cc1cc(O)cc2ccc(-c3ccc(O)cc3)cc12	Estrogen receptor (Homo sapiens)	84 nM
Oc1cc(F)c(-c2ccc3cc(O)ccc3c2)c(F)c1	Estrogen receptor (Homo sapiens)	10.3 nM
COc1cc(O)ccc1-c1ccc2cc(O)ccc2c1	Estrogen receptor (Homo sapiens)	174 nM

# lookup: Estrogen receptor (Homo sapiens) IC50, key = `Cc1cc(O)ccc1-c1ccc2cc(O)ccc2c1`
40 nM

Name the recorded IC50 of `Oc1ccc2ccc(-c3ccccc3)cc2c1` , assay system Estrogen receptor (Homo sapiens).
3400 nM

Write IC50 of `Oc1cc(F)c(-c2ccc3c(Cl)c(O)ccc3c2)c(F)c1` ; system used: Estrogen receptor (Homo sapiens)
35 nM

Consider the compound `Oc1ccc(-c2ccc3c(Cl)c(O)ccc3c2)cc1` tested on Estrogen receptor (Homo sapiens); state its IC50.
91 nM

Fetch value of IC50 on Estrogen receptor (Homo sapiens) for `Oc1ccc2cc(-c3ccc(O)c(F)c3)cc(F)c2c1` .
21 nM

Report value only: IC50, Estrogen receptor (Homo sapiens), `Oc1ccc(-c2cc(Cl)c3c(Cl)c(O)ccc3c2)cc1`
43 nM

# assay system Estrogen receptor (Homo sapiens): give IC50 of `N#Cc1cc(-c2ccc(O)cc2)cc2ccc(O)c(Br)c12`
131 nM

Lab note: record IC50 of `N#Cc1cc(-c2cc(F)c(O)cc2F)cc2ccc(O)cc12` tested on Estrogen receptor (Homo sapiens).
186 nM

Give IC50 for this entry on Estrogen receptor (Homo sapiens): `Oc1cccc(-c2ccc3c(O)cccc3c2)c1`
1450 nM

---

Please consider the recorded IC50 for Estrogen receptor (Homo sapiens) in what follows.
Write the value in nM as a bare number.

Here is how some molecules turned out for IC50.
compound.string	units	IC50
C#Cc1cc(-c2ccc(O)c(F)c2)cc2ccc(O)cc12	nM	247
Oc1ccc2cc(-c3cc(F)c(O)cc3F)ccc2c1	nM	27
O=Cc1cc(-c2ccc(O)c(F)c2)cc2ccc(O)cc12	nM	231

Shifting focus to the molecule that follows.
Report measured IC50; entry is `Oc1cc(F)c(-c2ccc3c(Cl)c(O)ccc3c2)cc1F`
118

---

target: Estrogen receptor beta (Homo sapiens)
For each record, check the reported IC50: if it is below 4 nM write rule met, else write rule not met.

Check if IC50 falls below 4 nM for `Oc1ccc2cc(-c3ccccc3O)ccc2c1` .
rule not met

Could you please tell me whether IC50 recorded for `N#Cc1cc(-c2ccc(O)cc2)cc2ccc(O)c(Cl)c12` is less than 4 nM?
rule not met

Bench note: check whether `N#Cc1cc(-c2ccc(O)cc2F)cc2ccc(O)cc12` shows IC50 below 4 nM
rule met

Please check: IC50 for `Oc1ccc(-c2ccc3cc(O)ccc3c2)c(Cl)c1` , strictly under 4 nM or not?
rule met

Record `Oc1ccc(-c2ccc3c(-c4ccccc4)c(O)ccc3c2)cc1` : is its IC50 strictly below 4 nM?
rule not met

Does `C=Cc1cc(O)cc2ccc(-c3ccc(O)c(F)c3)cc12` have IC50 strictly under 4 nM?
rule not met

Is IC50 strictly under 4 nM for the entry `Oc1ccc(-c2ccc3c(Cl)c(O)ccc3c2)c(Cl)c1` ?
rule met

Could you please tell me whether IC50 recorded for `N#Cc1cc(O)c(Br)c2ccc(-c3ccc(O)c(F)c3)cc12` is less than 4 nM?
rule not met

Quick check: IC50 of `Oc1ccc(-c2ccc3c(Br)c(O)ccc3c2)cc1` under 4 nM?
rule not met

---

// Estrogen receptor beta (Homo sapiens, UniProt Q92731) IC50 records
Lab book: enter the figure in nM, no units written.

Use the examples below as a reference point.
compound.string	observation.type	units	quantitative.readout
N#Cc1cc(O)cc2ccc(-c3ccc(O)cc3)cc12	IC50	nM	2
N#Cc1cc(O)c(Cl)c2ccc(-c3ccc(O)cc3)cc12	IC50	nM	3
Oc1ccc(-c2ccc3c(O)cccc3c2)cc1	IC50	nM	5.8
Oc1ccc2cc(-c3ccc(O)c(F)c3)cc(F)c2c1	IC50	nM	1.5
Oc1ccc(-c2ccc3c(Cl)c(O)ccc3c2)cc1F	IC50	nM	4

Supply IC50 measured with Estrogen receptor beta (Homo sapiens, UniProt Q92731) for `Oc1ccc(-c2ccc3cc(O)ccc3c2)cc1` .
Sequence (Q92731 whole entry): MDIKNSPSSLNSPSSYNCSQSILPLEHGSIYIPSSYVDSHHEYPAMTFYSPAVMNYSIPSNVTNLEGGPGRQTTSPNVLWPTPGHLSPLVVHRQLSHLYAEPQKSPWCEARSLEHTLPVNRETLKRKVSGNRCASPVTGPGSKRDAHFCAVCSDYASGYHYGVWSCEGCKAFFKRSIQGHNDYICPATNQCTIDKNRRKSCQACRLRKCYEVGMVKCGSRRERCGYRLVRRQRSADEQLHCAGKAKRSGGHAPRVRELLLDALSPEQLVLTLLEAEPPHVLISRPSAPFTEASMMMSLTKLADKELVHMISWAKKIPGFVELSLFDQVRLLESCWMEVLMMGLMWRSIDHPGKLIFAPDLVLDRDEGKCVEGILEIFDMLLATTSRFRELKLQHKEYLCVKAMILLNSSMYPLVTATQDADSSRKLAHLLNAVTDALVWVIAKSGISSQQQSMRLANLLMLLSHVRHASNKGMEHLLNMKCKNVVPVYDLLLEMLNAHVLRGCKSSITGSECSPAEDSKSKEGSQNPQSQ
16.3

Using Estrogen receptor beta (Homo sapiens, UniProt Q92731) as the test system, report measured IC50 of `Oc1ccc(-c2cc(F)c3c(Cl)c(O)ccc3c2)cc1` .
1.1
